Values were extracted from ChEMBL document CHEMBL1201862.

# System: UO-31
# experiment notes: NCI tumour cell line growth inhibition, 48 h
Calls of active or inactive are those of the source. Cut-off read from the data, not from the text of the source: active = GI50 up to about 1.1 µM and inactive = higher.
measurement kind: GI50

Known results for compounds:
CCOC(=O)[C@H](O)[C@@H](O)C(=O)NCc1ccc(C(=O)c2ccccc2)cc1: > 100 µM (inactive)
CN(C)CCNc1c([N+](=O)[O-])cc2c3c(cccc13)C(=O)N(CCN(C)C)C2=O: 1.58 µM (inactive)

[Q] Give its GI50 value. Item: `CCN(CC)CCCNc1nncc2c(C)c3[nH]c4ccccc4c3cc12`
[A] 5.79 µM (inactive)

[Q] Give its GI50 value. Item: `Brc1cc2c(cc1C1SCCS1)OCO2`
[A] > 100 µM (inactive)

---

# System: NCI-H23
# experiment notes: NCI tumour cell line growth inhibition, 48 h
The source made the active and inactive calls. No stated cut-off is given here; in the data, active = GI50 up to about 1.1 µM and inactive = higher.
// one of active, inactive, no free text

Solved cases below.
O=[N+]([O-])c1ccc(Nc2cccc3c4cc[nH]c(-c5ccccc5)c-4nc23)c([N+](=O)[O-])c1: inactive
CN(C)CCNc1c([N+](=O)[O-])cc2c3c(cccc13)C(=O)N(CCN(C)C)C2=O: inactive
CCOC(=O)C(=O)Nc1ccccc1C(C)C: inactive
[O-]c1c[n+](CC[n+]2cc([O-])on2)no1: inactive
NC1=NC(=O)/C(=C/c2ccccc2[N+](=O)[O-])C(N)=N1: inactive
CCCCCCC(=O)OC[n+]1ccc(-c2c(COC(=O)NC(C)C)c(COC(=O)NC(C)C)c3n2CCC3)cc1: inactive

[Q] Lab log entry: `CC1=NN(C(=O)c2ccccc2O)C(=O)/C1=C/c1ccccc1O` — outcome as called in the assay?
[A] active

[Q] Lab log entry: `Cc1ccc(C(=O)/C=C2\Nc3c(c(=O)oc4ccccc34)N=C2NC23CC4CC(CC(C4)C2)C3)cc1` — outcome as called in the assay?
[A] inactive

[Q] Lab log entry: `COc1ccc(CCNCc2cccc(OC)c2OC)cc1OC` — outcome as called in the assay?
[A] inactive

---

# Test system: KM12
# experiment notes: NCI tumour cell line growth inhibition, 48 h
Active and inactive are the calls of the source. No stated cut-off is given here; in the data, active = GI50 up to about 1.1 µM and inactive = higher.
// one of active, inactive, no free text

Solved cases below.
O=C1c2cccc3cccc(c23)C(=O)N1CCN(CCO)CCO: inactive
Cc1ccc(/C=C2/N/C(=N\N=C/C(O)C(O)C(O)C(O)CO)NC2=O)cc1 (stereo not given): inactive
O=[N+]([O-])c1ccc(Nc2cccc3c4cc[nH]c(-c5ccccc5)c-4nc23)c([N+](=O)[O-])c1: inactive
O=C(NNCc1ccco1)c1cc2ccccc2[nH]1: inactive
O=C(N[C@H]1CC2(C=C(I)C(=O)C(I)=C2)OC1=O)OCc1ccccc1: inactive

[Q] Lab log entry: `CCN(CC)CCCNc1nncc2c(C)c3[nH]c4ccccc4c3cc12` — outcome as called in the assay?
[A] active

[Q] Lab log entry: `O=c1c2c([nH]c3cc4c(cc13)OCO4)-c1ccccc1C2` — outcome as called in the assay?
[A] inactive

[Q] Lab log entry: CC(NP(=O)(c1ccccc1)c1ccccc1)c1ccccc1 (stereo not given) — outcome as called in the assay?
[A] inactive

[Q] Lab log entry: O=C1OC(Cc2ccccc2)(N2CCCC2=O)C1c1ccccc1 (stereo not given) — outcome as called in the assay?
[A] inactive

[Q] Lab log entry: `NNC(=O)c1nnn(N)c1S` — outcome as called in the assay?
[A] inactive

[Q] Lab log entry: `CC(=O)c1sc2n(C)c(=O)c3ccccc3[n+]2c1C` — outcome as called in the assay?
[A] inactive
